Assay system: Ubiquitin carboxyl-terminal hydrolase 8 (Homo sapiens)
Assay method text: Ubiquitin-specific protease 8 inhibitors, concentration-effect, biochemical, validation of initial actives (AID 1645862);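 note: potency reflects inhibition of USP8 cleavage of a ubiquitin rhodamine substrate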
Reported conditions: recombinant USP8 deubiquitinase activity assay
Activity calls are given as the source filed them. The rule behind the calls is not given here.
Form entry, call: pick from TRUE = active, FALSE = inactive

Would you please look over these solved cases?
> print(dat)
                       smiles.representation  assigned.class
 1  CCOc1ccc2c(c1)c(=O)c(C(=O)c1ccccc1)cn2CC(=O)Nc1ccccc1           FALSE
 2  CCCCCCCCCc1cc(OC(=O)c2c(CCCCCCCCC)cc(O)cc2O[C@@H]2O[C@H](CO)[C@@H](O)[C@H](O)[C@H]2O)cc(O)c1C(=O)O            TRUE
 3  O=C(Cn1nc(-c2ccccc2)cc(NC(=O)c2ccccc2)c1=O)Nc1ccc(F)cc1           FALSE
 4  N#Cc1cccc(NC(=O)COC(=O)c2n[nH]c3ccccc23)c1           FALSE
 5  Cc1ccccc1-c1noc(-c2cn(Cc3ccc(NC(=O)Cc4ccccc4)cc3)cn2)n1           FALSE
 6  Cc1cc(OCC(=O)Nc2ccc3c(c2)NC(=O)CO3)ccc1Cl           FALSE
 7  Cn1nc(Cl)c(Cl)c1Oc1ccc(S(=O)(=O)Nc2ccc(Oc3ccc(C(F)(F)F)cn3)c(Cl)c2)cc1           FALSE
 8  Cc1ccc(NC(=O)Nc2ccc(C)n(CC(=O)Nc3ccc(C)c(C)c3)c2=O)cc1            TRUE
 9  CC(C)Cc1ccc(-c2cc(-c3ccc(C(F)(F)F)cc3)c(C#N)c(=O)[nH]2)cc1           FALSE
10       CCOC(=O)c1cc2c(ccn2C)n1CC(=O)NC1CC1           FALSE

Recorded call for CNc1nc2c(c(=O)n1C)CN(C(=O)Nc1cccc3ccccc13)CC2 ? FALSE

Now give it for O=C(NCc1ccccc1Cl)C1CCN(c2ccc(-c3ccccc3)nn2)CC1 too. FALSE

// same read-out, input: O=C(Nc1ccc(Br)cc1F)c1ccc(S(=O)(=O)N2CCCC2)cc1 FALSE

For COc1ccc(-n2c(=O)c3ccc(C(=O)NCCc4ccccc4)cc3n(CC(=O)NCCC3=CCCCC3)c2=O)cc1 then? FALSE
